molecular target: 5-HT1A receptor (Rattus norvegicus, UniProt P19327); construct: Brains were rapidly removed and placed on ice; from tissue; host or cells: Sprague–Dawley rat hippocampus membranes; assay: Competitive 5-HT1A binding assay with [3H]8-OH-DPAT, rat hippocampal membranes; settings: 1 nM [3H]8-OH-DPAT, 95% CI in brackets, read-out: 5-HT1A Affinity Ki (nM, 95% CI)
Sequence (P19327 whole entry): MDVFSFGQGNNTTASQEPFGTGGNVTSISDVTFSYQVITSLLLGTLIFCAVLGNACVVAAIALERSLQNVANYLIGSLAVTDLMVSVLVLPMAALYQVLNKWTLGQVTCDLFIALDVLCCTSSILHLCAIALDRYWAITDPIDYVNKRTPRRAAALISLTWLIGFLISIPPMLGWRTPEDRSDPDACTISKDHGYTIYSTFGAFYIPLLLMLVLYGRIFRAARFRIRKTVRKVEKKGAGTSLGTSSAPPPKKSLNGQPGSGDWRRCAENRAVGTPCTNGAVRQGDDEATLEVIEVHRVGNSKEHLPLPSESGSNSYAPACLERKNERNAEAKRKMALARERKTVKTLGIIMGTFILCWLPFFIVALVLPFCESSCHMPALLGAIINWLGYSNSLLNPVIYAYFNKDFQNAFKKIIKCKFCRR
Here, each record is paired with measured Ki data.

{"Smiles Record": "CC(=O)c1cc2c(C)cc(=O)oc2cc1OCCCCN1CCN(c2ccc([N+](=O)[O-])cc2)CC1", "U": "nM", "Ki": 1800}
{"Smiles Record": "CC(=O)c1cc2c(C)cc(=O)oc2cc1OCCCCN1CCN(c2ccccc2Br)CC1", "U": "nM", "Ki": 1.96}
{"Smiles Record": "CC(=O)c1cc2c(C)cc(=O)oc2cc1OCCCCN1CCN(c2ccncc2)CC1", "U": "nM", "Ki": 1660}
{"Smiles Record": "CC(=O)c1cc2c(C)cc(=O)oc2cc1OCCCCN1CCN(c2cc(C)cc(C)c2)CC1", "U": "nM", "Ki": 22.4}
{"Smiles Record": "CC(=O)c1cc2c(C)cc(=O)oc2cc1OCCCCN1CCN(c2ccccc2C#N)CC1", "U": "nM", "Ki": 9.44}
{"Smiles Record": "CC(=O)c1cc2c(C)cc(=O)oc2cc1OCCCCN1CCN(c2cccc(Cl)c2Cl)CC1", "U": "nM", "Ki": 6.3}
{"Smiles Record": "COc1cccc(N2CCN(CCCCOc3cc4oc(=O)cc(C)c4cc3C(C)=O)CC2)c1", "U": "nM", "Ki": 12.9}
{"Smiles Record": "CC(=O)c1cc2c(C)cc(=O)oc2cc1OCCCCN1CCN(c2ccc(Br)cc2)CC1", "U": "nM", "Ki": 1.4}
{"Smiles Record": "CC(=O)c1cc2c(C)cc(=O)oc2cc1OCCCCN1CCN(c2cccc(Br)c2)CC1", "U": "nM", "Ki": 0.78}
{"Smiles Record": "CC(=O)c1cc2c(C)cc(=O)oc2cc1OCCCCN1CCOCC1", "U": "nM", "Ki": 9620}
{"Smiles Record": "COc1ccccc1N1CCN(CCCCOc2cc3oc(=O)cc(C)c3cc2C(C)=O)CC1", "U": "nM", "Ki": 5.75}
